// reported half-life at 0.5 μM per item
assay: Human liver microsome stability assay; type: in vitro ADME; conditions: both sexes, human, microsomes, pH 7.4
# value in min; strip the unit string

smiles record | half-life at 0.5 μM / min
Cn1cc(-c2cc(S(=O)(=O)N3CC(F)(F)C3)ccc2OCC2CC2)c2cc[nH]c2c1=O | 20
CCS(=O)(=O)Nc1ccc(Oc2ccc(C(N)=O)cc2)c(-c2cn(C)c(=O)c3[nH]ccc23)c1 | 112

Please look at the following compound next.
Quote half-life at 0.5 μM reported for CN(C)CCS(=O)(=O)Nc1ccc(Oc2ccc(F)cc2F)c(-c2cn(C)c(=O)c3[nH]ccc23)c1 please.
30
